B1: MYOZ1 (parent)
chain: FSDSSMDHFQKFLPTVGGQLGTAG

- Variants of: B1
- assayNotes: protein stability index of a GFP-peptide fusion (GPS, HEK-293T) (PSI 1-6); higher = more stable;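 note: lentivirally expressed fusions sorted by FACS into six bins by GFP to DsRed ratio, PSI derived from sequencing read proportions per bin multiplied by bin number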
- assaySetup: c terminus: a fixed tail appended
The label depends only on protein stability index: Criterion met if it is at least 2, Criterion not met if it is smaller.

Observe how each entry below is paired with its result.
T15I :: Criterion met
G18Y :: Criterion not met
S5P :: Criterion met

Moving on to another variant below.
Evaluate S5Q : protein stability index at minimum 2?
Criterion met
